tested on: PPARg:RXRa 30nM:10nM, anti-RXR (NR concentration 30 nM, RXRa partner concentration 10 nM); assay: PBM binding z-score (relative to random genomic background probes); higher = stronger binding; sequences stand for … in GC…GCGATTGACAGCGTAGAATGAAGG
# if value of PBM binding z-score reaches 0.7, tag yes (1); if it stays below, tag no (0)

Exercise: Exam item: decide whether the reported PBM binding z-score for "CGACCAAGGTCAAAGGTCAGTGAAGAGATGACGG" is at least 0.7.
Key: yes (1)

----------
system: RXRa homodimer (NR concentration 180 nM); assay: PBM binding z-score (relative to random genomic background probes); higher = stronger binding; sequences stand for … in GC…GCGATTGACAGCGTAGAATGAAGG
Classify by measured PBM binding z-score: Y if it is equal to or exceeds 2, N if it is smaller.

A selection of reference data follows.
CGAACTAGGTCCGAACAGGACAGTGAAGGATGAT N
GCGACTGGGGCATCAGCAGGTTAGCATAACTTAA N
CAAACTAGGTCACGATAGGTCAAAGTCGAATGAC Y
CCTAGTAGGTCAGGAGGTCACACACCGGATATGA Y
GCGACTTGGGCATCAGCAGGTTACCATAACTTAA N

Exercise: Is reported PBM binding z-score greater than or equal to 2 here: "CAAACTAAGTCACGAAAGGTCAAAGTCGAATGAC"
Key: Y

Exercise: Item "GCTGGTAGGTCAGGTTGGTCAGCTAACGGGTACG" with PBM binding z-score of 2 or above?
Key: N

Exercise: Is it the case that "TCTATTAGTAGATTAGGGCAACCGAAACAGCGGA" has PBM binding z-score reaching or exceeding 2?
Key: N

Exercise: Is the recorded value of PBM binding z-score equal to or greater than 2 for this sequence? "TCTGCTAGGTCAACGATGATCAGCTAATCTGCTA"
Key: Y

Exercise: Does the reported PBM binding z-score for "TAGCCTAGGTCAGATGGGGCCAGTATACGCTATA" fall at or above the 2 mark?
Key: N

----------
test system: RARa homodimer (NR concentration 270 nM); test: PBM binding z-score (relative to random genomic background probes); higher = stronger binding; sequences stand for … in GC…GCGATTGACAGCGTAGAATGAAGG
Given measured PBM binding z-score, output label 1 if it is greater than or equal to 0.1 and label 0 if not.

Before answering, review these 5 worked examples.
ACTAGTTGGTCAGCTGAGGTCACACAGAATTCGG label 1
TCATAGAGGTAAACAGGTGAAAGTCCGTAAGTTA label 1
TAGCCTAGGTCATTGGGCAAGTATAGTACGCATC label 0
TCAGACAGGTGAAGGTACCTCAGGTACGCAGTCG label 0
TCTTGTAGATCAAGCAGGCTAAGAAAGCCTGAGT label 0

Exercise: Hi team, for "TAGCATAGGTCATGGGCCAGTATACCACGCGAAC" , is the recorded PBM binding z-score at or above 0.1?
Key: label 1

Exercise: Hello, I need to know if "GGAACGAGGGCAAGTTGATAGAAGAGTTTGATGG" has measured PBM binding z-score not below 0.1. Thanks!
Key: label 1

Exercise: Entry "ACTAGCAGGCCAAGTTTGGGTCGCTCAAACAAAG" : is its PBM binding z-score no less than 0.1?
Key: label 0

Exercise: hey, is PBM binding z-score for this one >= 0.1? "TCTTGTAGATCGGCAGGTTAAGAAAGCTGGCCAA"
Key: label 0

Exercise: Record "TCTTGTAGATCAAGCAGGTTAATAAAGCCTGAGT" ; criterion: PBM binding z-score no lower than 0.1. Met?
Key: label 1

Exercise: Is it the case that "TCAAGCAGGCCAGAGGGTCACTCAAGAGGTACGG" has PBM binding z-score reaching or exceeding 0.1?
Key: label 0

Exercise: Reported PBM binding z-score at or above 0.1? "GGAACGAGGGCATTCTAGTTGATAGCATGGCGAT"
Key: label 0
